Values were extracted from the RNAGym collection of RNA variant scans (doi:10.7554/elife.90254).

self-cleavage values for the variants below.
B1: LINE1-full (parent)
chain: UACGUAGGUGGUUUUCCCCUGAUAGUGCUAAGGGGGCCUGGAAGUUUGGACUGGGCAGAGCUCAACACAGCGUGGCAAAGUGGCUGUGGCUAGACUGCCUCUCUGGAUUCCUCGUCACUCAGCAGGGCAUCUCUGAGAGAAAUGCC

- Variants of: B1
- TEST METHOD NOTES: self-cleavage, relative activity (ratio to wild type); higher = more cleavage; in vitro, sequencing; the parent is a self-cleaving ribozyme
// no unit string in output, number only

{"SEQUENCE RECORD": "UACGUAGGUGGUUUUCCCCUGACAGUGCUAAGGGGGCCUGGAAGUUUGGACUGGGCAGAGCUCAACACGGCGUGGCAAAGUGGCUGUGGCUAGACUGCCUCUCUGGAUUCCUCGUCACUCAGCAGGGCAUCUCUGAGAGAAAUGCC", "self-cleavage": 1.2}

q: I would be grateful if you could share the reported self-cleavage for UACGUAGGUGGUUUUCCUCUGAUAGUGCUAAGGGGGCCUGGAAGUUUGGACUGGGCAGAGCUCAACACAGCGUGGCAAAGUGGCUGUGGCUAGACUGCCUCUCUGGAUUCCUCGCCACUCAGCAGGGCAUCUCUGAGAGAAAUGCC .
a: 1.49

q: I would be grateful if you could share the reported self-cleavage for UACGUAGGUGGUUUUCCCCUGAUAGUGCUAAGGGGGCUUGGAAGUUUGGACUGGGCAGAGCUCAACUCAGCGUGGCAAAGUGGCUGUGGCUAGACUGCCUCUCUGGAUUCCUCGUCACUCAGCAGGGCAUCUCUGAGAGAAAUGCC .
a: 0.07

q: I would be grateful if you could share the reported self-cleavage for UACGUAGGUGGUUUUCCCCUGAUAGUGCUAAGGGGACCUGGAAGUUUGGACUGGGCAGAGCUCAACACAGCGUGGCAAAGUGGCUGUGGCUAGACUGCCUCUCUAGAUUCCUCGUCACUCAGCAGGGCAUCUCUGAGAGAAAUGCC .
a: 1.46
